# TGT: LE-AmDH-v1 (ε-deaminating L-lysine dehydrogenase LysEDH F173A) (Geobacillus stearothermophilus, UniProt Q9AJC6, F173A)
# TEST NAME: steady-state kinetics, Lineweaver-Burk competitive product inhibition, NADH oxidation at […] nm, […] °C
READOUT NAME: Ki (mM)

[[record]]
compound = "C[C@@H](N)c1ccccc1 [(R)-8b]"
readout_name = "Ki"
readout_units = "mM"
measured = 4.48

